Entries annotated with measured phage ELISA signal ratio
# system-name: UBR5 2391-2453 PABP (domain begin residue: 2391, domain end residue: 2453), O95071
# Sequence (O95071 whole entry): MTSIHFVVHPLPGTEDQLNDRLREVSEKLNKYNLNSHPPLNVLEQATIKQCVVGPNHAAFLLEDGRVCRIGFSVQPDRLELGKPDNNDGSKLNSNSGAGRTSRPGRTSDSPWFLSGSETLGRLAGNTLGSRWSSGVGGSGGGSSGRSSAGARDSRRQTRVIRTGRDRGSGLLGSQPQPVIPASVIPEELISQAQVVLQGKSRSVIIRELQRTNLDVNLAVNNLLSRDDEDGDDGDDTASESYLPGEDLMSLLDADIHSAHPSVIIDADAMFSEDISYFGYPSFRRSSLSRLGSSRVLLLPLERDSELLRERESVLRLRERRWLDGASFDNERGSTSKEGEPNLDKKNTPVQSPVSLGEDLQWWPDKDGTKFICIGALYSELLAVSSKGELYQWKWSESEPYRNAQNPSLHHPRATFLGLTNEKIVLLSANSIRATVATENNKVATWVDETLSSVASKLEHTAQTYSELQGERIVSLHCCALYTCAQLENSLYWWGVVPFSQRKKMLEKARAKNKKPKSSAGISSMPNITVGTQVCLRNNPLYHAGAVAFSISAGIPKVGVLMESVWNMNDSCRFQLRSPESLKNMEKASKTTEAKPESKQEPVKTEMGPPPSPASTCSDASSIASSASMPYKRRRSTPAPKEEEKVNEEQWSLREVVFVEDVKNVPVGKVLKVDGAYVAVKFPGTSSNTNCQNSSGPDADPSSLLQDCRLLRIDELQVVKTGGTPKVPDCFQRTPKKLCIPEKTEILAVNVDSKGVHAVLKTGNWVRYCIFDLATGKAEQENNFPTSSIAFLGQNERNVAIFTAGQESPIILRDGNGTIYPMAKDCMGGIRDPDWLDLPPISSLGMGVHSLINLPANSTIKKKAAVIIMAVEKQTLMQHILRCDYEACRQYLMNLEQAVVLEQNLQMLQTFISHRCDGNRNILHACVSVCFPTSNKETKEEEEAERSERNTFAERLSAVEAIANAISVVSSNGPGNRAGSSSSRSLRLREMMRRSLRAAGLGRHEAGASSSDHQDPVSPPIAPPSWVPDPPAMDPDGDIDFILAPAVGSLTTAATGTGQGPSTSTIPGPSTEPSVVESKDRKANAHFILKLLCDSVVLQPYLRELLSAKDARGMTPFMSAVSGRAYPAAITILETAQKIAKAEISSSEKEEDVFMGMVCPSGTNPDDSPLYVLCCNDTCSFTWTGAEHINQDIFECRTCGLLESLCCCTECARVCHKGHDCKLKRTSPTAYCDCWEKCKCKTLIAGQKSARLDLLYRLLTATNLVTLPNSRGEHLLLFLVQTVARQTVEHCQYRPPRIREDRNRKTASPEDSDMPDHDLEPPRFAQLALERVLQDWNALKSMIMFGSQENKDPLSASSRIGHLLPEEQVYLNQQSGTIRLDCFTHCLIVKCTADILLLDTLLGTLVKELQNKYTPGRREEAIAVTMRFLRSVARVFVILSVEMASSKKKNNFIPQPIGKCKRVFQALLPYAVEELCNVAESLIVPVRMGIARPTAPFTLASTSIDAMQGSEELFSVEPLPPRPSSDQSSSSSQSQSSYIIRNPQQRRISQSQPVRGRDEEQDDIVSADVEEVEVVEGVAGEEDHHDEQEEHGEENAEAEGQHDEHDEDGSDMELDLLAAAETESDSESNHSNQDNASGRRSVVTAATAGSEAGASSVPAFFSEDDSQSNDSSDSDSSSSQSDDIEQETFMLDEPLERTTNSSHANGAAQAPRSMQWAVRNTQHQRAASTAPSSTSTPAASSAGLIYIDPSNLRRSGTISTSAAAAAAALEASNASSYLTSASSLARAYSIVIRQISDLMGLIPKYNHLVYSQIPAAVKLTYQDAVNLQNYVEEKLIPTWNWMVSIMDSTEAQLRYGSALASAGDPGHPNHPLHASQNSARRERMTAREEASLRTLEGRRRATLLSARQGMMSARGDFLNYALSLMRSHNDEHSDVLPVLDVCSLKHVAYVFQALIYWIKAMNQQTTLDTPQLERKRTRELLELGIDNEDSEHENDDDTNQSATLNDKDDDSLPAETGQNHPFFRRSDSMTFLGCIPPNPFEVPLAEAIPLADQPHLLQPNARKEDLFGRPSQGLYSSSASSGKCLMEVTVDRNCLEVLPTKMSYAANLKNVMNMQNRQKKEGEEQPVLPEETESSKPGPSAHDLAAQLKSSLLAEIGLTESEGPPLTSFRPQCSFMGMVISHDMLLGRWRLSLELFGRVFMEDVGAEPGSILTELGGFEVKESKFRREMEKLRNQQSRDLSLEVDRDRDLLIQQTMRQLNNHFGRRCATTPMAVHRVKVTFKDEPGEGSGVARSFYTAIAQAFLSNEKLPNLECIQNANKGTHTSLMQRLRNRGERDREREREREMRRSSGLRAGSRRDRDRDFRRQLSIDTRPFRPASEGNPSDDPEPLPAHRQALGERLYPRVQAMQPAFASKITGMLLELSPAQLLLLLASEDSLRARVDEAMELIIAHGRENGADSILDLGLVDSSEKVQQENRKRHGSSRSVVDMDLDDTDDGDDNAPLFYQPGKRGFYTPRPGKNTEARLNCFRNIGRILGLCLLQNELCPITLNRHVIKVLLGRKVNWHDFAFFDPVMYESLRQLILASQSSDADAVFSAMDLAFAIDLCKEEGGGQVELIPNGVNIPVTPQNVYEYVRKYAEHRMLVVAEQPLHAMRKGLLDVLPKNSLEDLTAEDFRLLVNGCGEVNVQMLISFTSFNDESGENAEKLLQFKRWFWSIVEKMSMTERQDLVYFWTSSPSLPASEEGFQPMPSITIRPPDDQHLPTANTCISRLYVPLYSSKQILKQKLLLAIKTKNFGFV
# experiment: phage ELISA signal ratio (GST-PRM binding over GST background); higher = stronger binding of peptide-phage to the PRM
Lab note: record the figure alone, no unit after it.

> print(dat)
             binder  test.value
1  DDIWPVSAVHAQPFMV        21.2
2  ELSIWADAFQPHWHKV        21.8
3  QMNVQAQEWWPAHMTF        18.6
4  NNQVMNVNATPYYWPT        19.4
5  EWGSGWLNFQAAEFIV         8.2

Q: Name the recorded phage ELISA signal ratio for "EFLNVMAPSWVDITEW" .
Result: 16.9

Q: Name the recorded phage ELISA signal ratio for "EWQWHNSVDWVPHKAT" .
Result: 12.4
